Cited source: patent US20160355587A1

# target of assay: T1, human CD166 protein (human, UniProt Q13740 28-526, limits assumed)
# T1 construct: Isolated human CD166 protein coated on ELISA plates; also called ALCAM
# T1 sequence (looked up): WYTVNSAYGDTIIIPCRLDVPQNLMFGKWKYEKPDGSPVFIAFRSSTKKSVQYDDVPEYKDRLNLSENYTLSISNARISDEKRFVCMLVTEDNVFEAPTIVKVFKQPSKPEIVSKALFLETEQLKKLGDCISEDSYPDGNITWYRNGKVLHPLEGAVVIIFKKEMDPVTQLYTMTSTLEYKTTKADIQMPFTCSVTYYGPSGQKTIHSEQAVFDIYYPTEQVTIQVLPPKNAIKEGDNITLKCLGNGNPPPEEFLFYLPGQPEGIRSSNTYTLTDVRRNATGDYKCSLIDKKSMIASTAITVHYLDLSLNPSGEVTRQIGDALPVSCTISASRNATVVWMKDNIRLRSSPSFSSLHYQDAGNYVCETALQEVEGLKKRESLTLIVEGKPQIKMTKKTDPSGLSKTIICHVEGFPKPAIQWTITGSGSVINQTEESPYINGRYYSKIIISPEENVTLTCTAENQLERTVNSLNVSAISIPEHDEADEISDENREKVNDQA
# procedure summary: ELISA; relative to parental CD166 M9 vk1/HcB
observation type: Fold Increase in Kd (fold)
Give the quantity in fold, number only.

Task: Give the measured Fold Increase in Kd of CD166-7614.11-2001 (antibody) chain 1: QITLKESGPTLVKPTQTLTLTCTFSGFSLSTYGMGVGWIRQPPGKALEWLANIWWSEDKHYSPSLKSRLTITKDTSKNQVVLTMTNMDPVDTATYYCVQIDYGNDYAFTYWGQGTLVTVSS chain 2: QGQSGQGCHPLVLSAWESCGGGSSGGSISSGLLSGRSDNHGGGSDIVMTQSPLSLPVTPGEPASISCRSSKSLLHSNGITYLYWYLQKPGQSPQLLIYQMSNLASGVPDRFSGSGSGTDFTLKISRVEAEDVGVYYCAQNLELPYTFGQGTKLEIK .
Output: 123
